Measurement Target: Ephrin type-B receptor 3 (Homo sapiens) (UniProt P54753)
Sequence (P54753 whole entry): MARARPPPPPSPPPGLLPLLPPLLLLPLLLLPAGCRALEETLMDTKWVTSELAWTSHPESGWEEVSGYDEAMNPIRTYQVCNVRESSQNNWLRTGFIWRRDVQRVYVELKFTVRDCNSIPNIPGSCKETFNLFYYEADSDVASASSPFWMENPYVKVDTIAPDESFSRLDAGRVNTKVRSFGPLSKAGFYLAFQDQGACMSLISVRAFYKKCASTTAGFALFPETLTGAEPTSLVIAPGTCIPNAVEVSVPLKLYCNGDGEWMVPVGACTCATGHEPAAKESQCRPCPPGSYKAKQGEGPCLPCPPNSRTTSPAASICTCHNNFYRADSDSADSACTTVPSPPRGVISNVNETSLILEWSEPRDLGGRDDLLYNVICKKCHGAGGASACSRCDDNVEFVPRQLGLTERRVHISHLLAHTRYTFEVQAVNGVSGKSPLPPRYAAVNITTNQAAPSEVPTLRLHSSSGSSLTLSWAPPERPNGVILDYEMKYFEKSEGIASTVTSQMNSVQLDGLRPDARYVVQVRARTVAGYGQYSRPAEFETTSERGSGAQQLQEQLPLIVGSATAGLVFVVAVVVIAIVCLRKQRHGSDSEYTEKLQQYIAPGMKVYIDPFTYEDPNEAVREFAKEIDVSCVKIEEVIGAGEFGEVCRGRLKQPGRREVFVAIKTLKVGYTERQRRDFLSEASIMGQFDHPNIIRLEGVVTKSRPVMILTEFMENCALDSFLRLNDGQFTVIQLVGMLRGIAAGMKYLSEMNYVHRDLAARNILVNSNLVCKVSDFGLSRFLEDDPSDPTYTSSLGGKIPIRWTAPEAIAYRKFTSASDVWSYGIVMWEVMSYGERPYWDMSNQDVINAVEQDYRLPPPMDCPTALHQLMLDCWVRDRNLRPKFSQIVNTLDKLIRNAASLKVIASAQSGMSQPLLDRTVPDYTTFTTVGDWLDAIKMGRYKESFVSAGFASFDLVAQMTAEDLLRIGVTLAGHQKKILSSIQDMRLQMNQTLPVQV
Condition Description: at 1 µM
Description: Millipore: Percentage of residual kinase activity of EPHB3 at 1uM relative to control. Control inhibitor: PP2 at 30.0uM. Buffer: 8 mM MOPS pH 7.0, 0.2 mM EDTA, 10 mM MnCl2
The reader will find reported residual activity values listed item by item below.
The reply should be a number in %, with the unit left off.

Please review the entries below; each comes with its answer.
compound=CC(C)(C)c1cc(C=C(C#N)C#N)cc(Br)c1O measurement_target="Ephrin type-B receptor 3 (Homo sapiens) (UniProt P54753)" property_name="residual activity" assay_value=96
compound=COC(=O)[C@@]1(O)C[C@H]2O[C@]1(C)n1c3ccccc3c3c4c(c5c6ccccc6n2c5c31)C(=O)NC4 measurement_target="Ephrin type-B receptor 3 (Homo sapiens) (UniProt P54753)" property_name="residual activity" assay_value=110

[in] Name the reported residual activity value associated with the compound O=c1[nH]c2ccccc2n1C1CCN(Cc2ccc(-c3nc4cc5[nH]cnc5cc4nc3-c3ccccc3)cc2)CC1
[out] 123

[in] Name the reported residual activity value associated with the compound O=[N+]([O-])/C=C/c1ccc2c(c1)OCO2
[out] 117

[in] Name the reported residual activity value associated with the compound COc1cc2ncnc(Nc3ccc(OCc4ccccc4)cc3)c2cc1OC
[out] 117

[in] Name the reported residual activity value associated with the compound O=C1c2ccccc2-c2nc3nnnn3nc21
[out] 108

[in] Name the reported residual activity value associated with the compound C[S+]([O-])c1ccc(-c2nc(-c3ccc(F)cc3)c(-c3ccncc3)[nH]2)cc1 (stereo unspecified)
[out] 114

[in] Name the reported residual activity value associated with the compound O=C1Nc2ccc3ncsc3c2/C1=C/c1c[nH]cn1
[out] 120

[in] Name the reported residual activity value associated with the compound COc1ccc2c(c[n+](C)c3c4cc5c(cc4ccc23)OCO5)c1OC
[out] 126

[in] Name the reported residual activity value associated with the compound CCc1nc(-c2ccc(OC)cc2)[nH]c1-c1ccncc1
[out] 110

[in] Name the reported residual activity value associated with the compound COc1cc(OC)c(/C=C2\C(=O)Nc3ccccc32)c(OC)c1
[out] 124

====

Measurement Target: Muscle, skeletal receptor tyrosine-protein kinase (Homo sapiens)
Condition Description: at 1 µM
Property Name: residual activity (%)
The reply should be a number in %, with the unit left off.

Please review the entries below; each comes with its answer.
compound=O=C1c2ccccc2-c2nc3nnnn3nc21 property_name="residual activity" measurement_units=% assay_value=131
compound=COc1cc(OC)c(/C=C2\C(=O)Nc3ccccc32)c(OC)c1 property_name="residual activity" measurement_units=% assay_value=88
compound=O=C1Nc2ccc3ncsc3c2/C1=C/c1c[nH]cn1 property_name="residual activity" measurement_units=% assay_value=53
compound=CC(C)(C)c1cc(C=C(C#N)C#N)cc(Br)c1O property_name="residual activity" measurement_units=% assay_value=121
compound=COc1cc2ncnc(Nc3ccc(OCc4ccccc4)cc3)c2cc1OC property_name="residual activity" measurement_units=% assay_value=118
compound=COC(=O)[C@@]1(O)C[C@H]2O[C@]1(C)n1c3ccccc3c3c4c(c5c6ccccc6n2c5c31)C(=O)NC4 property_name="residual activity" measurement_units=% assay_value=18
compound=c1cc(-c2cnn3cc(-c4ccc(OCCN5CCCCC5)cc4)cnc23)ccn1 property_name="residual activity" measurement_units=% assay_value=18
compound=CCn1cnc2c(Nc3cccc(Cl)c3)nc(N[C@@H]3CCCC[C@@H]3N)nc21 property_name="residual activity" measurement_units=% assay_value=61

In the following, a different compound is considered.
[in] Name the reported residual activity value associated with the compound C[S+]([O-])c1ccc(-c2nc(-c3ccc(F)cc3)c(-c3ccncc3)[nH]2)cc1 (centres undefined)
[out] 143
